# System: Staphylococcus aureus, USA 300
*1 amine or outer side, *2 acyl side, *3 side chain or, on linkers, in order; H or OH if unused. Where a SMILES comes first, the peptide text is derived from it. Bridges are numbered along the chain shown (N, C = ends). [ ]: non-standard residue; d: D form. The star is where a group is joined. Phe(3,5-F2) = N[C@@H](Cc1cc(F)cc(F)c1)C(=O)O; Pro(4S-Me) = C[C@@H]1CN[C@H](C(=O)O)C1; Pro(4R-Me) = C[C@H]1CN[C@H](C(=O)O)C1; NH(4-Et-phenyl) = CCc1ccc(N*)cc1; NMeT = CN[C@H](C(=O)O)[C@@H](C)O; NH(4-Me-phenyl) = Cc1ccc(N*)cc1; aThr = C[C@H](O)[C@H](N)C(=O)O; Pip = O=C(O)[C@@H]1CCCCN1; CO = O=C([*:1])[*:2]
Assay endpoint: MIC (µM)
Express it in µM; write the number only.

{"Compound": "CCc1ccc(NC(=O)N[C@@H](Cc2cc(F)cc(F)c2)C(=O)N[C@@H]2C(=O)N3CCC[C@H]3C(=O)N(C)[C@@H]([C@@H](C)O)C(=O)N[C@@H](C)C(=O)N3C[C@H](C)C[C@H]3C(=O)O[C@H]2C)cc1 [Compound 42] ({NH(4-Et-phenyl)-CO}-[Phe(3,5-F2)][aThr]P[NMeT]A[Pro(4R-Me)]; ester 2-C)", "Unit descriptor": "µM", "MIC": 0.1}
{"Compound": "Cc1ccc(NC(=O)N[C@@H](Cc2ccccc2)C(=O)N[C@H]2COC(=O)[C@@H]3C[C@@H](C)CN3C(=O)[C@H](C)NC(=O)[C@@H]3CCCCN3C(=O)[C@@H]3CCCN3C2=O)cc1", "Unit descriptor": "µM", "MIC": 0.1}

Prompt line: Could you share what MIC was measured for Cc1ccc(NC(=O)N[C@@H](Cc2cc(F)cc(F)c2)C(=O)N[C@@H]2C(=O)N3CCC[C@H]3C(=O)N3CCCC[C@H]3C(=O)N[C@@H](C)C(=O)N3C[C@@H](C)C[C@H]3C(=O)O[C@H]2C)cc1 [Compound 18] ({NH(4-Me-phenyl)-CO}-[Phe(3,5-F2)][aThr]P[Pip]A[Pro(4S-Me)]; ester 2-C) , tested on Staphylococcus aureus, USA 300?
Response line: 0.1

---

# MIC annotations
# Tested on: Streptococcus pyogenes, ATCC 700294
# Experimental details: Minimal inhibitory concentration assay (microbroth dilution)
# Type: cell-based
# Particulars: Streptococcus pyogenes, ATCC700294, read-out: Minimal Inhibitory Concentrations S. pyogenes ATCC 700294
*1 amine or outer side, *2 acyl side, *3 side chain or, on linkers, in order; H or OH if unused. Where a SMILES comes first, the peptide text is derived from it. Bridges are numbered along the chain shown (N, C = ends). [ ]: non-standard residue; d: D form. The star is where a group is joined. ξ: configuration not given here. Phe(3,5-F2) = N[C@@H](Cc1cc(F)cc(F)c1)C(=O)O; NH(1-Me-indolin-5-yl) = CN1CCc2cc(N*)ccc21; Morpholine(3S-CO) = O=C(O)[C@@H]1COCCN1; Pro(4R-Me) = C[C@H]1CN[C@H](C(=O)O)C1; X9 = CC1(C)CC(C(=O)[*:2])N([*:1])C1; ξPro(4S-Me) = C[C@@H]1CNC(C(=O)O)C1; NH(4-Me-phenyl) = Cc1ccc(N*)cc1; aThr = C[C@H](O)[C@H](N)C(=O)O; NMeA = CN[C@@H](C)C(=O)O; ξPip = O=C(O)C1CCCCN1; CO = O=C([*:1])[*:2]; ξP = O=C(O)C1CCCN1
Express it in µM; write the number only.

# annotated cases, reported MIC shown
{"Molecule": "Cc1ccc(NC(=O)N[C@@H](Cc2cc(F)cc(F)c2)C(=O)N[C@H]2COC(=O)C3CC(C)(C)CN3C(=O)[C@H](C)NC(=O)C3CCCCN3C(=O)C3CCCN3C2=O)cc1 (some centres unmarked) [Compound 49] ({NH(4-Me-phenyl)-CO}-[Phe(3,5-F2)]S[ξP][ξPip]A[X9]; ester 2-C)", "Assay endpoint": "MIC", "Recorded number": 25}
{"Molecule": "C[C@@H]1C[C@H]2C(=O)O[C@@H](C)[C@H](NC(=O)[C@H](Cc3cc(F)cc(F)c3)NC(=O)Nc3ccc4c(c3)CCN4C)C(=O)N3CCC[C@H]3C(=O)N3CCOC[C@H]3C(=O)N[C@@H](C)C(=O)N2C1 [Compound 312] ({NH(1-Me-indolin-5-yl)-CO}-[Phe(3,5-F2)][aThr]P[Morpholine(3S-CO)]A[Pro(4R-Me)]; ester 2-C)", "Assay endpoint": "MIC", "Recorded number": 0.156}
{"Molecule": "Cc1ccc(NC(=O)N[C@@H](Cc2cc(F)cc(F)c2)C(=O)N[C@@H]2C(=O)N3CCCC3C(=O)N(C)[C@@H](C)C(=O)N[C@@H](C)C(=O)N3CCCC3C(=O)O[C@H]2C)cc1 (some centres unmarked) [Compound 25] ({NH(4-Me-phenyl)-CO}-[Phe(3,5-F2)][aThr][ξP][NMeA]A[ξP]; ester 2-C)", "Assay endpoint": "MIC", "Recorded number": 1}

Let's switch to this molecule now.
Prompt line: Reported MIC, molecule Cc1ccc(NC(=O)N[C@@H](Cc2cc(F)cc(F)c2)C(=O)N[C@@H]2C(=O)N3CCCC3C(=O)N(C)[C@@H](C)C(=O)N[C@@H](C)C(=O)N3C[C@@H](C)CC3C(=O)O[C@H]2C)cc1 (stereo partly drawn) [Compound 26] ({NH(4-Me-phenyl)-CO}-[Phe(3,5-F2)][aThr][ξP][NMeA]A[ξPro(4S-Me)]; ester 2-C) : ____
Response line: 0.5

Reference source: patent US10457707B2
